Measured values drawn from the supplement of paper PMC12613149 for this set.

assay: reversed-phase LC retention time (C18, 15 min MeOH gradient); higher = more hydrophobic / later elution; details: ionization mode: ESI-; ion species: [M-H]-
measured.metric: reversed-phase LC retention time (min)
Kindly provide the numeric value in min only, without the unit symbol.

Challenge: # query: reversed-phase LC retention time of entry CC(=O)c1cc(C(C)(C)C)c(O)c(C(C)(C)C)c1 [3,5-Di-tert-butyl-4'-hydroxyacetophenone]
Response given: 16.3

Challenge: # query: reversed-phase LC retention time of entry Oc1c(Br)cc(Br)cc1Br [2,4,6-Tribromophenol]
Response given: 12.8

Challenge: # query: reversed-phase LC retention time of entry COc1ccc(-c2coc3cc(O)cc(O)c3c2=O)cc1 [Biochanin A]
Response given: 12.9

Challenge: # query: reversed-phase LC retention time of entry CCCCCCCCCCCCc1ccccc1S(=O)(=O)O [Dodecylbenzenesulfonic acid]
Response given: 17.3

Challenge: # query: reversed-phase LC retention time of entry Oc1nc(Cl)c(Cl)cc1Cl [3,5,6-Trichloro-2-pyridinol]
Response given: 11.2

Challenge: # query: reversed-phase LC retention time of entry CC[C@H](C)[C@H]1O[C@]2(C=C[C@@H]1C)C[C@@H]1C[C@@H](C/C=C(\C)[C@@H](O[C@H]3C[C@H](OC)[C@@H](O[C@H]4C[C@H](OC)[C@@H](NC)[C@H](C)O4)[C@H](C)O3)[C@@H](C)/C=C/C=C3\CO[C@@H]4[C@H](O)C(C)=C[C@@H](C(=O)O1)[C@]34O)O2 [Emamectin B1a]
Response given: 18.9

Challenge: # query: reversed-phase LC retention time of entry Oc1ccc(Cl)cc1Cc1ccccc1 [Chlorophene]
Response given: 15.9

Challenge: # query: reversed-phase LC retention time of entry CCCCC(CC)COP(=O)(O)OCC(CC)CCCC (stereo not given) [Bis(2-ethylhexyl)phosphate]
Response given: 17.1

Challenge: # query: reversed-phase LC retention time of entry COc1nc(C)nc(NC(=O)NS(=O)(=O)c2ccccc2Cl)n1 [Chlorsulfuron]
Response given: 9.09

Challenge: # query: reversed-phase LC retention time of entry CCNc1nc(O)nc(NC(C)C)n1 [2-Hydroxyatrazine]
Response given: 10.7

Challenge: # query: reversed-phase LC retention time of entry O=P(O)(OCCC(F)(F)C(F)(F)C(F)(F)C(F)(F)C(F)(F)C(F)(F)F)OCCC(F)(F)C(F)(F)C(F)(F)C(F)(F)C(F)(F)C(F)(F)F [6:2 Fluorotelomer phosphate diester]
Response given: 17.6

Challenge: # query: reversed-phase LC retention time of entry CC(=O)[C@@]1(O)CC[C@H]2[C@@H]3C=C(Cl)C4=CC(=O)[C@@H]5C[C@@H]5[C@]4(C)[C@H]3CC[C@@]21C [Cyproterone]
Response given: 14.9

Challenge: # query: reversed-phase LC retention time of entry CC(Oc1ccc(Oc2ncc(C(F)(F)F)cc2Cl)cc1)C(=O)O (stereo not given) [Haloxyfop-P]
Response given: 14

Challenge: # query: reversed-phase LC retention time of entry CC(O)(CS(=O)(=O)c1ccc(F)cc1)C(=O)Nc1ccc(C#N)c(C(F)(F)F)c1 (stereo not given) [Bicalutamide]
Response given: 13.7

Challenge: # query: reversed-phase LC retention time of entry CC(C)(C(=O)O)c1ccc(C(O)CCCN2CCC(C(O)(c3ccccc3)c3ccccc3)CC2)cc1 (stereo not given) [Fexofenadine]
Response given: 14.2
